Recorded growth inhibition, one value per entry.
- experimental details: NCI Yeast Anticancer Drug Screen. Data for the cln2 rad14 strain (AID 165);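 further: 0% = growth equal to vehicle treated cultures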
- condition parameters: S. cerevisiae cln2 rad14 strain, at 50.0 µM, active compounds read high
Compounds without any hit were thinned out: in the full panel of roughly 79,000, 15% have a hit.
Give just the numeric value; % need not be written.

Check out these entries, answers already filled in.
{"chem smiles": "CC(C)c1nc(N)nc(N)n1", "growth inhibition [%]": 12.8}
{"chem smiles": "CCOC(=O)c1cc(CC)[nH]c(=O)c1C#N", "growth inhibition [%]": -32.7}
{"chem smiles": "CC(C)=CC(=O)OC(C)(C)C", "growth inhibition [%]": 6.1}

Qu. Read the entry COc1ccc2cc3n(cc-2c1=O)CCc1cc2c(cc1-3)OCO2 and write its reported growth inhibition.
Ans. -14.4
